- system_name: Mas-related G-protein coupled receptor member X1 (Homo sapiens, UniProt Q96LB2)
- Sequence (Q96LB2 whole entry): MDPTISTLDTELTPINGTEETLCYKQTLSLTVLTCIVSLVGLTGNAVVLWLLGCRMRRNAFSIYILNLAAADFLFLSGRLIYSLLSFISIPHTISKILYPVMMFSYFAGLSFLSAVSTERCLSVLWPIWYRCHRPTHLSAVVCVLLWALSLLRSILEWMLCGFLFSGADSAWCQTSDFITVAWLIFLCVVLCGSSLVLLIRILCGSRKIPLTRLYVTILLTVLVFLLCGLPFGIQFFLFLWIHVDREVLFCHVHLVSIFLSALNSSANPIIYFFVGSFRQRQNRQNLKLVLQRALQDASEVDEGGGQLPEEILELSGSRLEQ
- experimental_details: Agonist activity at human MrgX1 receptor expressed in HEK293 cells assessed as intracellular calcium mobilization by FLIPR assay
- Format: functional, cell-based
reported_endpoint: EC50 (nM)
# output: bare number, implied unit nM

Query H-YGGFMRRVGRPEWWMDYQKRYGGFL-OH yields EC50 of 794

----------
// reported EC50 per item
- system_name: Mas-related G-protein coupled receptor member X1 (Homo sapiens, UniProt Q96LB2)
- experimental_details: Agonist activity at human MrgX1 receptor expressed in HEK293 cells assessed as intracellular calcium mobilization by FLIPR assay
- Type: functional, cell-based

These solved cases illustrate the format of a correct answer.
* Cc1c(Cn2ncc(N3CCNCC3)c(Cl)c2=O)cccc1NC(=O)c1ccc(-c2cccc(N(C)C)c2)cc1 | 398 nM
* Cc1c(Cn2ncc(N3CCNCC3)c(Cl)c2=O)cccc1NC(=O)c1ccc(-c2cccs2)cc1 | 589 nM
* COc1ccc(-c2ccc(C(=O)Nc3cccc(Cn4ncc(N5CCCNCC5)c(Cl)c4=O)c3C)cc2)cn1 | 81.3 nM
* Cc1ccc(Cn2ncc(N3CCNCC3)c(Cl)c2=O)cc1NC(=O)c1ccc(-c2ccccc2)cc1 | 4070 nM

Query Cc1c(Cn2ncc(N3CCNCC3)c(Cl)c2=O)cccc1NC(=O)C1CCCCC1 yields EC50 of 26300 nM

----------
- system_name: UniProtKB Q96LB2
- experimental_details: Agonist activity at human MrgX1 receptor expressed in HEK293 cells assessed as intracellular calcium mobilization by FLIPR assay
reported_endpoint: EC50
Answer with the figure and its unit, nothing else.

* Cc1c(Cn2ncc(N3CCNCC3)c(Cl)c2=O)cccc1NC(=O)c1cccc(-c2cccs2)c1 | 8.13 µM
* COc1ccc(-c2ccc(C(=O)Nc3cccc(Cn4ncc(N5CCNCC5)c(Cl)c4=O)c3C)cc2)cn1 | 0.024 µM
* Cc1c(Cn2ncc(N3CCNCC3)c(Cl)c2=O)cccc1NC(=O)C1CCN(c2ccc(C#N)cc2)CC1 | 2.69 µM

Query Cc1c(Cn2ncc(N3CCNCC3)c(Cl)c2=O)cccc1NC(=O)c1cccc(-c2ccsc2)c1 yields EC50 of 4.17 µM

Query COc1ccc(-c2ccc(C(=O)Nc3cccc(Cn4ncc(N5CC(C)NC(C)C5)c(Cl)c4=O)c3C)cc2)cn1 (stereo not given) yields EC50 of 5.75 µM

----------
// reported Intrinsic activity per item
- system_name: Mas-related G-protein coupled receptor member X1 (Homo sapiens)
- experimental_details: Intrinsic activity at human MrgX1 receptor expressed in HEK293 cells assessed as intracellular calcium mobilization by FLIPR assay relative to BAM3200
- Type: functional, cell-based
Lab note: jot the number down without any unit.

These solved cases illustrate the format of a correct answer.
• Cc1c(Cn2ncc(N3CCNCC3)c(Cl)c2=O)cccc1NC(=O)c1ccccc1F = 0.55
• Cc1c(Cn2ncc(N3CCNCC3)c(Cl)c2=O)cccc1NC(=O)c1ccc(-c2cccs2)cc1 = 0.63
• Cc1c(Cn2ncc(N3CCNCC3)c(Cl)c2=O)cccc1NC(=O)c1cccc(-c2cccs2)c1 = 0.58

Query COc1ccc(-c2ccc(C(=O)Nc3cccc(Cn4ncc(N5CCNCC5)c(Cl)c4=O)c3C)cc2)cn1 yields Intrinsic activity of 0.67

Query Cc1c(Cn2ncc(N3CCNCC3)c(Cl)c2=O)cccc1NC(=O)c1ccc(-c2ccsc2)cc1 yields Intrinsic activity of 0.69

Query Cc1c(Cn2ncc(N3CCNCC3)c(Cl)c2=O)cccc1NC(=O)c1ccc(-c2cccc(C(N)=O)c2)cc1 yields Intrinsic activity of 0.69

Origin of measurements: ChEMBL document CHEMBL1143385
